FYI, the data here is from the domain aggregation screens of Martell et al. (2025).

- measurement notes: soluble fraction after stress (log2 fold change); higher = more stays soluble; pooled small domains, quantitative proteomics
- experimental setup: stress: pH 4
soluble fraction (log2) values by entry
I'd appreciate a reply containing only the number, no unit.

Worked cases, soluble fraction (log2) given:
>>> print(df.to_string())
                             sequence_chain            assay_readout  numeric_result
0  HMATSLTEQEKLIFGLLKKQSPIELSSLKEQAGLSNKKWDKAIKGLSTQQLAKVTKTENGLFVHLLQ  soluble fraction (log2)            0.12
1  HMDEAAGVLTQLRAFIAASNLSPGLRLPPERELAEQLGVTRAELRKALAVLEAEGLLWRQVGKGTFYGARP  soluble fraction (log2)          -0.523
2  HMPEVYSFEVNEGAAGKRLDIFLSGEIEGLTRSFIQKLISEGMATVNQEPPRASYRVKTRDLVELQIPDPE  soluble fraction (log2)          -0.309
3  HMSTQVPDVKERSQEEARSILESAGFKVTPAVKTEDSADIAKDMVTKTDPAAGQSVPKGTTITIYVSS  soluble fraction (log2)           0.298
4  HMKGKWKPIILWQLSKAPQSLSGLRHSIAGISQKMLIQHLNELIHFGFVVRTTFEGYPLKVEYDLTDRGR  soluble fraction (log2)          -0.251

stdin: Input HMVEPIEESISQLSLLLQSLYEDGKSEVSFEELIRSDRSRVSLFLALLFMAQRGNVYLEQEELFGDLRVKN , output reported soluble fraction (log2).
stdout: -0.4

stdin: Input HMNYIGADAAKNMAAADAQVDTANASFSGANLGEKNGLSYYQVDFTANGREYHYAIDAMTGTVIESSSAAS , output reported soluble fraction (log2).
stdout: -0.0522

stdin: Input HMDLPRQSQYQALVVSYARRAGIDEAEEDLLAAFEVWRMRHNHDLAGGRTARDFILAYLPQYQRHKE , output reported soluble fraction (log2).
stdout: -0.59

* * *

- measurement notes: soluble fraction after stress (log2 fold change); higher = more stays soluble; pooled small domains, quantitative proteomics
- experimental setup: stress: pH 4
Entry flag: 1 if soluble fraction (log2) reaches -0.5; 0 if it does not.

Take a look at these entries with their results.
                             sequence_chain  assigned_class
0  HMWSNTAVIDRIRQLHEEGQPISSQSVQVNHKSLYMAAIKRFRGWKRAVEAAGIDYRQIRLR               1
1  HMSERVVVPDLTGKDLVAAQSELREISLAGREEGPGDKVRRQFPVAGVKVPKDTVVILYTED               1
2  HMGNYEEAILAFEAAIKIDPKNADAYRKLAEAYEKTGDEDAALRTLETGAEATGDRELADLAEKKRQELDA               1

stdin: Is soluble fraction (log2) at least -0.5? Consider HMKDYKSALQELIQSGDKRVISYHTLKETGPSHNREFEAAVKLDGNIILGVGKGKTKKEAEQNAAHEALKK
stdout: 1

stdin: Is soluble fraction (log2) at least -0.5? Consider HMDKINQEAIEDEAGLWLAKIDGRQLAQEEVRELIAWMRRSDFHREYLITLARQWDGMAALNKLATLFP
stdout: 0

stdin: Is soluble fraction (log2) at least -0.5? Consider HMSSDLESVIGTHSQEANFALRSWGWIQPDETWKNLRPDQVSQILERANEFMAKAIESFANAQSE
stdout: 0

stdin: Is soluble fraction (log2) at least -0.5? Consider HMENYIEQLTAKNSEYIHVVTRELVKIGKSDEEIKAILSDILPQIVAAQDQRVLAKDILGTPSEFTAKYAP
stdout: 1

stdin: Is soluble fraction (log2) at least -0.5? Consider HMKILKQLEAIIEKEGLNESAKQFYLREISELDKEKQQEIINLVDKMEQAGFKNNLASAFSEVTEDIPQF
stdout: 0

* * *

- measurement notes: soluble fraction after stress (log2 fold change); higher = more stays soluble; pooled small domains, quantitative proteomics
- experimental setup: stress: pH 4
soluble fraction (log2) values by entry
I'd appreciate a reply containing only the number, no unit.

Worked cases, soluble fraction (log2) given:
>>> print(df.to_string())
                             sequence_chain            assay_readout  numeric_result
0  HMFLDKDTLNQLYRFGIALTGNEQDSQDVLHTAIERFLRNKPQQINQQAAYIRTIMRNYWYDELRKLKTQ  soluble fraction (log2)         -0.0981
1  HMVYNGYYAKSFNGYVVILNGDEKTVYEYTQIPIHLLPEDIRSSVMSGYYLENETDLYNFLENYS  soluble fraction (log2)          -0.211
2  HMKYKWLAGQLRRELLENGGKKGYKLPTELELARRYQLSRQTVRRALQLLEEEGLILRRQGSGAYATGKPP  soluble fraction (log2)          0.0629
3  HMNTVSVGNLGLSVRAVNALKQAGIDTYDKLQELSWEELLLIPKLGQVTAAEIYRFITSYKKG  soluble fraction (log2)          -0.491
4  HMTELIEDYVELIGDLIRHRGEARAADIANRMAVSQATVSKMIRRLNELGLVTSKPYRSLFLTDEGQKMAE  soluble fraction (log2)          -0.469

stdin: Input HMDIVIPIQVKNVSSGEVLDFPSIRAAARDLKFPKTTISLGVRYAGEKAYKGFVMRYRSDDPWPIVQES , output reported soluble fraction (log2).
stdout: 0.103

stdin: Input HMPAEGWEASGDTWRYRQKDGSYITNAWVQDTDGKWYYFDESSLMVRNQTTSDGYYVGEDGVWTET , output reported soluble fraction (log2).
stdout: -1.83

stdin: Input HMSVLLKEEGSLQLARHGAAYFIIYSAQEHPNQRRHLKISEEESNRIMEGTPIEEIFLAYSG , output reported soluble fraction (log2).
stdout: -0.972

stdin: Input HMKGSIMIETILKELKKNNKGFNFLLEKFDISEDELMKIINDLIHDKKVFLNSNNKYEIVSD , output reported soluble fraction (log2).
stdout: -0.958

stdin: Input HMAMTNEEREALISEIKQTVNNSIDLKKDISDTEIKEAITQAVFERSEKSYLSIAEKQDIITAVFNSMR , output reported soluble fraction (log2).
stdout: -0.159

* * *

soluble fraction (log2) values by entry
- measurement notes: soluble fraction after stress (log2 fold change); higher = more stays soluble; pooled small domains, quantitative proteomics
- experimental setup: stress: pH 4
I'd appreciate a reply containing only the number, no unit.

>>> print(df.to_string())
                             sequence_chain            assay_readout  numeric_result
0  HMAGEDPANLELMRLMDEEYMEHPTKGVLGMVDFLRALGILTGPKRVRRLLRKMGIMAIYPK  soluble fraction (log2)          -0.396
1  HMSIESMVGRFGVVTKDVVANEMAGKVKVGREEFRATADIAVSSGTKVKVTHAEGITLTVVPE  soluble fraction (log2)          0.0258

stdin: Input HMVGLKWYDTGNKKPPIGTEYKNTELSEALKGHDRKEFTWKELDVLGVNITDKEQYIVVGENYYTQV , output reported soluble fraction (log2).
stdout: 0.22

stdin: Input HMSRFLEGILQRRAGGKNYFVPDDGSNPIFIADRNSAGAANGDRVRIAQFARRPRSGPEGEVVEILKRAK , output reported soluble fraction (log2).
stdout: 0.153

stdin: Input HMKTAWDELNEVIEAYRGQESALIEVLHKAQEIMGYLPRDVQEAIAEGLHVPLNKVYGVVSFYHHFSV , output reported soluble fraction (log2).
stdout: -0.204

* * *

soluble fraction (log2) values by entry
- measurement notes: soluble fraction after stress (log2 fold change); higher = more stays soluble; pooled small domains, quantitative proteomics
- experimental setup: stress: pH 4
I'd appreciate a reply containing only the number, no unit.

Worked cases, soluble fraction (log2) given:
>>> print(df.to_string())
                             sequence_chain  numeric_result
0  HMTDDFAGRFNELLIHNQETAVTAATRLEVSPAVITKWRQGKSIPSGEYIKRIVETYHVSADYLLGVIDTP         -0.0517
1  HMDISPAAKQRLALIQPLLEKNAEAITDRKLRNAVAKDIANNQNTTVRRVLRLYYRYLATGQVM           0.158
2  HMATHWHITPNPNNGKFLISGLMQDDSFHLMDASGQWLRQLRTVNQELDLDLQPGVYFLKDNSGSVMKFVV           -1.15
3  HMTHPAHLARIGALIRSARQHEGLTQAQLAELLGTSQSAIHRIEQGGQNITLDMLTRISAALDSEIVTIG              -1

stdin: Input HMVREVGYNAFLAMLDSGAVKEVARDESEGQITFLATDEKGKERVYKTGIWPDDTLTERLNTAGVEFA , output reported soluble fraction (log2).
stdout: -0.941

stdin: Input HMDDFVEIDGKKYEIDMSFDNILRLFDLLKDKSLNDVTKIETGLIMLIDDSLDDYDTEEKADIFVQIF , output reported soluble fraction (log2).
stdout: 0.22

stdin: Input HMFERISELLTDEELAVYKRGRNANASSVPKHADIADYRRATGVEALFGYLYIKGEIDRINQLFELA , output reported soluble fraction (log2).
stdout: -0.635
